# testedTarget: MC5-R (Homo sapiens, UniProt P33032)
# Construct: expressed in transfected cells; host or cells: HEK-293
# Sequence (P33032 whole entry): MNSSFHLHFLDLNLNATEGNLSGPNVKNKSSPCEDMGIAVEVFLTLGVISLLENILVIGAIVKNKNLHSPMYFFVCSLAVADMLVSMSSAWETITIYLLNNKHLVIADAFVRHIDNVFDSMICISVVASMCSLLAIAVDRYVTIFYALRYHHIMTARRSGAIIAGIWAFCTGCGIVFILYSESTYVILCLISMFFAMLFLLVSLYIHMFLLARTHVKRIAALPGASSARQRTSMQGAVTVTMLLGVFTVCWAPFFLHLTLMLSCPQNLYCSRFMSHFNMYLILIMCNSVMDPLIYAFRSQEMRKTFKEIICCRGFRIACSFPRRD
# methodDescription: Competitive inhibition binding assay using [I125]-NDP-α-MSH, HEK-293 membranes, recombinant hMC5-R
# protocolConditions: 1 μM compound
What inhibition at 1 µM was measured for each of the following?
Please state the figure in %; there is no need to write the unit.

Lookup: # inhibition at 1 µM lookup, item CC(C)C[C@@H]1CN(C(=O)[C@H](N)Cc2ccc(Cl)cc2Cl)[C@@H](CCCCNCCN)CN1C(=O)Cc1ccc2ccccc2c1 [Example 1]
Found: 68

Lookup: May I ask what inhibition at 1 µM has been recorded for CC(C)C[C@@H]1CN(C[C@H](N)Cc2ccc(Cl)cc2Cl)[C@@H](CCCNCCCCCN)CN1C(=O)Cc1ccc2ccccc2c1 [Example 31] ?
Found: 87

Lookup: Can you look up the measured inhibition at 1 µM of CC(C)C[C@@H]1CN(C[C@H](N)Cc2ccc(Cl)cc2Cl)[C@@H](CCCNCCCN)CN1C(=O)Cc1ccc2ccccc2c1 [Example 29] for me?
Found: 84

Lookup: Entry under review: Cc1ccc(C[C@@H](N)CN2C[C@@H](C)N(C(=O)Cc3ccc4ccccc4c3)C[C@@H]2CCCNCCN)c(C)c1 [Example 3] . Reported inhibition at 1 µM?
Found: 94

Lookup: Consider the compound CC(C)C[C@@H]1CN(C[C@H](N)Cc2ccc(Cl)cc2Cl)[C@@H](CCCNCCCCN)CN1C(=O)Cc1ccc2ccccc2c1 [Example 30] and give its measured inhibition at 1 µM.
Found: 84

Lookup: Give the measured inhibition at 1 µM of CC(C)C[C@@H]1CN(C(=O)[C@H](N)Cc2ccc(Cl)cc2Cl)[C@@H](CCCCNCCN)CN1C(=O)[C@H](N)Cc1ccc(Cl)cc1Cl [Example 19] .
Found: 47

Lookup: Given NCCNCCC[C@H]1CN(C(=O)[C@H](N)Cc2ccc(Cl)cc2Cl)[C@H](CC2CCCCC2)CN1C(=O)[C@H](N)Cc1ccc(Cl)cc1Cl [Example 15] , state its recorded inhibition at 1 µM.
Found: 31

Lookup: For the compound shown here, C[C@@H]1CN(C(=O)[C@H](N)Cc2ccc(Cl)c(Cl)c2)[C@@H](CCCNCCN)CN1C(=O)[C@H](N)Cc1ccc(Cl)c(Cl)c1 [Example 28] , give the reported inhibition at 1 µM.
Found: 84

Lookup: inhibition at 1 µM lookup needed for Cc1ccc(C[C@@H](N)CN2C[C@@H](C)N(C(=O)Cc3ccc4ccccc4c3)C[C@@H]2CCCNC2CCCCC2N)c(C)c1 (some centres unmarked) [Example 6] , thanks.
Found: 98

Lookup: What value of inhibition at 1 µM has been recorded for this entry: Cc1ccc(C[C@H](CN2C[C@@H](C)N(C(=O)Cc3ccc4ccccc4c3)C[C@@H]2CCCN2CCN(C)CC2)N(C)C)c(C)c1 [Example 10]
Found: 54

Lookup: So what does the record say about inhibition at 1 µM for Cc1ccc(C[C@H](CN2C[C@@H](C)N(C(=O)Cc3ccc4ccccc4c3)C[C@@H]2CCCN(C)C2CCCCC2N(C)C)N(C)C)c(C)c1 (some centres unmarked) [Example 8] ?
Found: 48

Lookup: I have this compound here, Cc1ccc(C[C@@H](N)C(=O)N2C[C@H](CCCCNCCN)N(C(=O)[C@H](N)Cc3ccc(C)cc3C)C[C@H]2CC(C)C)c(C)c1 [Example 21] , and I need its recorded inhibition at 1 µM.
Found: 51

Lookup: I have this compound here, Cc1ccc(C[C@H](CN2C[C@@H](C)N(C(=O)Cc3ccc4ccccc4c3)C[C@@H]2CCCN(C)C2CCN(C)C2)N(C)C)c(C)c1 (some centres unmarked) [Example 7] , and I need its recorded inhibition at 1 µM.
Found: 44

Lookup: # query: inhibition at 1 µM of entry CC(C)C[C@@H]1CN(C(=O)[C@H](N)Cc2ccc(Cl)cc2Cl)[C@@H](CCCNCCN)CN1C(=O)[C@H](N)Cc1ccc(Cl)cc1Cl [Example 12]
Found: 55

Lookup: For the compound Cc1ccc(C[C@H](CN2C[C@@H](C)N(C(=O)Cc3ccc4ccccc4c3)C[C@@H]2CCCN(C)CCN(C)C)N(C)C)c(C)c1 [Example 9] , what inhibition at 1 µM is on record?
Found: 51

Lookup: Suppose we examine the compound CC(C)C[C@@H]1CN(C(=O)[C@H](N)Cc2ccc3ccccc3c2)[C@@H](CCCNCCN)CN1C(=O)[C@H](N)Cc1ccc2ccccc2c1 [Example 13] ; what inhibition at 1 µM value has been reported?
Found: 57

Lookup: Find the recorded inhibition at 1 µM belonging to CC(C)C[C@@H]1CN(C(=O)[C@H](N)Cc2ccc3ccccc3c2)[C@@H](CCCCNCCN)CN1C(=O)[C@H](N)Cc1ccc2ccccc2c1 [Example 20] and report it.
Found: 49

Lookup: Return reported inhibition at 1 µM; argument: Cc1ccc(C[C@@H](N)CN2C[C@@H](C)N(C(=O)Cc3ccc4ccccc4c3)C[C@@H]2Cc2ccc(NCCN)cc2)c(C)c1 [Example 11]
Found: 36

Lookup: Item under review: Cc1ccc(C[C@@H](N)C(=O)N2C[C@H](CCCNCCN)N(C(=O)[C@H](N)Cc3ccc(C)cc3C)C[C@H]2CC(C)C)c(C)c1 [Example 17] . Reported inhibition at 1 µM?
Found: 38

Lookup: Request the reported inhibition at 1 µM associated with Cc1ccc(C[C@@H](N)CN2C[C@@H](C)N(C(=O)Cc3ccc4ccccc4c3)C[C@@H]2CCCN2CCNCC2)c(C)c1 [Example 4]
Found: 97
